// provenance: PubChem BioAssay AID1963843

A collection of compounds and their measured viability, T/C
# System: 616215-338-R-J1-PDC complex spheroid viability;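 also: spheroids exposed to compounds for one week before readout; percent viability relative to DMSO vehicle wells taken as 100%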
# Assay procedure: Anticancer human tumor 616215-338-R-J1-PDC patient-derived colon adenocarcinoma cell line growth inhibition [POLQ]
# Cond: second compound 1 µM; first compound 0.316 µM; active compounds read low
// units = %; emit number, no label

O=C(c1cc(Cc2n[nH]c(=O)c3ccccc23)ccc1F)N1CCN(C(=O)C2CC2)CC1 + Nc1ccc(C#CCN(C(=O)Cc2ncc(C(F)(F)F)cc2C(F)(F)F)c2ccc(F)cc2)nn1
94.4
CC1COCCN1c1cc(C2(O)CC3CCC(C2)O3)c2cnn(-c3ccn[nH]3)c2n1 (stereo not given) + Cc1cccc(N(C)C(=O)C2C(O)CCN2c2nc(C)cc(C(F)(F)F)c2C#N)c1
74.2

Request: Please state recorded viability, T/C (tested on 616215-338-R-J1-PDC complex spheroid viability) of O=C(Nc1ccc(O)c(NS(=O)(=O)c2ccc(F)cc2)c1)c1ccc(-c2ccccc2)cc1 + COC1C(OC(N)=O)C(O)C(Oc2ccc3c(O)c(NC(=O)c4ccc(O)c(CC=C(C)C)c4)c(=O)oc3c2C)OC1(C)C;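 also: spheroids exposed to compounds for one week before readout; percent viability relative to DMSO vehicle wells taken as 100%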
Response: 101

Request: Please state recorded viability, T/C (tested on 616215-338-R-J1-PDC complex spheroid viability) of CCc1cc2c(N3CCc4c(cc(Cn5ccnc5)cc4-c4cn(C)nc4C(F)(F)F)C3=O)ccnc2c(OC)n1 + COC1C(OC(N)=O)C(O)C(Oc2ccc3c(O)c(NC(=O)c4ccc(O)c(CC=C(C)C)c4)c(=O)oc3c2C)OC1(C)C;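 also: spheroids exposed to compounds for one week before readout; percent viability relative to DMSO vehicle wells taken as 100%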
Response: 99

Request: Please state recorded viability, T/C (tested on 616215-338-R-J1-PDC complex spheroid viability) of COc1cccc2c1C(=O)c1c(O)c3c(c(O)c1C2=O)CC(O)(C(=O)CO)CC3OC1CC(N)C(O)C(C)O1 (stereo not given) + COC1C(OC(N)=O)C(O)C(Oc2ccc3c(O)c(NC(=O)c4ccc(O)c(CC=C(C)C)c4)c(=O)oc3c2C)OC1(C)C;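 also: spheroids exposed to compounds for one week before readout; percent viability relative to DMSO vehicle wells taken as 100%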
Response: 86.5
